# reported stability 90 C., 20 min V; entries follow
# protocolDescription: stability 90 C., 20 min (V, BP, TW, BS) of hydrocodone conjugates
# assaySetup: V (abbreviation not defined)
Residues, ends and D or L forms follow the SMILES beside them. *: point of attachment. X1 = COc1ccc2c3c1OC1C(O*)=CCC4[C@@H](C2)N(C)CC[C@]314

compound	stability 90 C., 20 min V
CC[C@H](C)[C@H](NC(=O)[C@H](CCC(=O)O)NC(=O)[C@@H](N)CCC(=O)O)C(=O)OC1=CCC2[C@H]3Cc4ccc(OC)c5c4[C@@]2(CCN3C)C1O5 (stereo partly shown)	0
CC[C@H](C)[C@H](NC(=O)[C@H](Cc1ccccc1)NC(=O)[C@H](Cc1ccccc1)NC(=O)[C@H](CCC(=O)O)NC(=O)[C@@H](N)CCC(=O)O)C(=O)OC1=CCC2[C@H]3Cc4ccc(OC)c5c4[C@@]2(CCN3C)C1O5 (stereo partly shown) [Glu2-Phe2-Ile-HC] (H-EEFFI-X1)	0
COc1ccc2c3c1OC1C(OC(=O)[C@H](Cc4ccccc4)NC(=O)[C@H](Cc4ccccc4)NC(=O)[C@H](Cc4ccccc4)NC(=O)[C@H](CCC(=O)O)NC(=O)[C@@H](N)CCC(=O)O)=CCC4[C@@H](C2)N(C)CC[C@]314 (stereo partly shown) [Glu2-Phe3-HC, Glu2-Phe3-Hydrocodone] (H-EEFFF-X1)	3
COc1ccc2c3c1OC1C(OC(=O)[C@H](Cc4ccccc4)NC(=O)CNC(=O)CNC(=O)[C@H](CCC(=O)O)NC(=O)[C@@H](N)CCC(=O)O)=CCC4[C@@H](C2)N(C)CC[C@]314 (stereo partly shown) [Glu2-Gly2-Phe-HC] (H-EEGGF-X1)	0
